The reader will find reported shrunken log2 fold change values listed item by item below.
System: Escherichia coli TOP10
MEASUREMENT_NOTES: shrunken log2 fold change of peptide-encoding DNA abundance (4.5 h post-induction vs induction); higher = less antimicrobial activity (less host growth inhibition)
TEST_SETTINGS: time post-induction: 4.5 h; library: site-saturation at positions 5, 18, 19, 20
I only need the number, thanks.

The following sequences have reported results that may help.
>>> numeric_value("RRIRERPPRLPRPRPRPEMNPRP")
0.0387
>>> numeric_value("RRIRTRPPRLPRPRPRPKSPPRP")
-0.0758
>>> numeric_value("RRIRLRPPRLPRPRPRPNYFPRP")
-0.121
>>> numeric_value("RRIRGRPPRLPRPRPRPILVPRP")
0.133
>>> numeric_value("RRIRWRPPRLPRPRPRPWNQPRP")
-0.067
>>> numeric_value("RRIRFRPPRLPRPRPRPWWIPRP")
-0.681

## Task Report shrunken log2 fold change under test system Escherichia coli TOP10 for RRIRPRPPRLPRPRPRPSNPPRP .
## Result -0.0794

## Task Report shrunken log2 fold change under test system Escherichia coli TOP10 for RRIRDRPPRLPRPRPRPNWCPRP .
## Result 0.0171

## Task Report shrunken log2 fold change under test system Escherichia coli TOP10 for RRIRARPPRLPRPRPRPVFDPRP .
## Result 0.321

## Task Report shrunken log2 fold change under test system Escherichia coli TOP10 for RRIRHRPPRLPRPRPRPCNGPRP .
## Result -0.00865

## Task Report shrunken log2 fold change under test system Escherichia coli TOP10 for RRIRERPPRLPRPRPRPSVFPRP .
## Result -0.0831

## Task Report shrunken log2 fold change under test system Escherichia coli TOP10 for RRIRYRPPRLPRPRPRPKCMPRP .
## Result -0.841

## Task Report shrunken log2 fold change under test system Escherichia coli TOP10 for RRIRHRPPRLPRPRPRPSEFPRP .
## Result -0.477

## Task Report shrunken log2 fold change under test system Escherichia coli TOP10 for RRIRFRPPRLPRPRPRPPCLPRP .
## Result -0.0576

## Task Report shrunken log2 fold change under test system Escherichia coli TOP10 for RRIRRRPPRLPRPRPRPHYHPRP .
## Result -0.35

## Task Report shrunken log2 fold change under test system Escherichia coli TOP10 for RRIRSRPPRLPRPRPRPDFYPRP .
## Result -0.0521

## Task Report shrunken log2 fold change under test system Escherichia coli TOP10 for RRIRRRPPRLPRPRPRPPNMPRP .
## Result 0.402

## Task Report shrunken log2 fold change under test system Escherichia coli TOP10 for RRIRDRPPRLPRPRPRPKIRPRP .
## Result -0.0266

## Task Report shrunken log2 fold change under test system Escherichia coli TOP10 for RRIRMRPPRLPRPRPRPPIYPRP .
## Result -0.0765

## Task Report shrunken log2 fold change under test system Escherichia coli TOP10 for RRIRTRPPRLPRPRPRPLILPRP .
## Result -0.839

## Task Report shrunken log2 fold change under test system Escherichia coli TOP10 for RRIRPRPPRLPRPRPRPKILPRP .
## Result 0.0456

---

Test system: Escherichia coli TOP10;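 also: peptides expressed intracellularly from a pBAD plasmid library in pooled LB shake-flask culture, induced with 0.3% L-arabinose, DNA abundance read by NGS, three biological replicates, DESeq2 with apeglm shrinkage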
MEASUREMENT_NOTES: shrunken log2 fold change of peptide-encoding DNA abundance (4.5 h post-induction vs induction); higher = less antimicrobial activity (less host growth inhibition)
TEST_SETTINGS: time post-induction: 4.5 h; library: site-saturation at positions 5, 18, 19, 20
READOUT_NAME: shrunken log2 fold change

## Task Identify measured shrunken log2 fold change corresponding to RRIRGRPPRLPRPRPRPTIEPRP
## Result 0.673
